The entries below come with measured growth values attached.
system: U251 CNS; experiment: NCI-60 one-dose screen, 48 h (100 = growth as untreated, 0 = no growth, -100 = all killed); conditions: 10 µM unless noted
About 83,000 compounds went through this panel and 20% of them were active in at least one assay; those are over-represented in the sample as a whole. Calls of active or inactive are those of the source. How the source made its calls: active means growth percent below 10; inactive means the rest.
measurement.type: growth

compound	reported.measurement
COc1cc(/C=C2\C(=O)Nc3ccc(N(C)C)cc32)cc(OC)c1OC	11.4% (inactive)
COc1ccc2nc(C)cc(Nc3ccccc3O)c2c1	-27.5% (active)
COc1ccc(C2=NN(C=O)C(c3ccc(OS(=O)(=O)c4ccc(C)cc4)c(OC)c3)C2)cc1 (stereo not given)	60.3% (inactive)
COc1ccc(-c2cnc3ccnn3c2-c2cc(OC)c(OC)c(OC)c2)cc1	37.7% (inactive)
Clc1ccc(Nc2ncnc3c2sc2ncccc23)cc1	28% (inactive)
CCN(CC)CCCNc1cccc2c(C)cc(OC)nc12	94.3% (inactive)
COc1cc(C)cc2oc3oc(=O)c(-c4csc(-c5cc6ccccc6oc5=O)n4)cc3c(=O)c12	110% (inactive)
CCOc1cccc(/C=N/NC(=O)Cc2ccc(Nc3ccnc(C(F)(F)F)c3)cc2)c1O	20.6% (inactive)
Nc1ccc(C(OC(=O)c2cc3ccccc3c(Cc3c(O)c(C(=O)OC(c4ccc(N)cc4)(c4ccc(N)cc4)c4ccc(N)cc4)cc4ccccc34)c2O)(c2ccc(N)cc2)c2ccc(N)cc2)cc1	11.2% (inactive)
O=C(c1ccc(C(F)(F)F)c(Cl)c1)N(Cc1ccc(Cl)cc1)c1ccc(-c2cc(C(F)(F)F)[nH]n2)c(O)c1	4.18% (active)
CC1=NN(c2cccc(S(N)(=O)=O)c2)C(=O)C1	101% (inactive)
CC1=C(C(=O)Nc2ccc(F)cc2)C(c2ccc(Cl)cc2)C2=C(CC(C)(C)CC2=O)N1 (stereo not given)	81.6% (inactive)
Clc1cc(Br)ccc1-c1ccc(CNCC2CCNCC2)o1	16.9% (inactive)
CN1CCN(Cc2ccc(NC(=O)c3cncc(C#Cc4ccc(N)nc4)c3)cc2C(F)(F)F)CC1	14.9% (inactive)
Nc1c(C(=O)c2ccc(Br)cc2)sc2nc3c(cc12)CCCC3	89.6% (inactive)
O=c1cc(N2CCOCC2)oc2c(-c3ccc4c(c3)OCCO4)csc12	31.2% (inactive)
O=C(c1ccccc1)N(CCCCl)C(=O)N(CCCCl)C(=O)c1ccccc1	88.5% (inactive)
CCCCN(CCCC)CCC(O)c1cc2ccc(C(F)(F)F)cc2c2cc(C(F)(F)F)ccc12 (stereo not given)	45.2% (inactive)
CNCCCNc1ccnc2cc(Cl)ccc12	0.589% (active)
CC(=O)[C@@]1(O)[C@H](C)C[C@H]2[C@@H]3C=C(C)C4=Cc5c(cnn5-c5ccccc5)C[C@]4(C)[C@H]3[C@@H](O)C[C@@]21C	6.52% (active)
